# Target entity: UniProtKB P00533
# Sequence (P00533 whole entry): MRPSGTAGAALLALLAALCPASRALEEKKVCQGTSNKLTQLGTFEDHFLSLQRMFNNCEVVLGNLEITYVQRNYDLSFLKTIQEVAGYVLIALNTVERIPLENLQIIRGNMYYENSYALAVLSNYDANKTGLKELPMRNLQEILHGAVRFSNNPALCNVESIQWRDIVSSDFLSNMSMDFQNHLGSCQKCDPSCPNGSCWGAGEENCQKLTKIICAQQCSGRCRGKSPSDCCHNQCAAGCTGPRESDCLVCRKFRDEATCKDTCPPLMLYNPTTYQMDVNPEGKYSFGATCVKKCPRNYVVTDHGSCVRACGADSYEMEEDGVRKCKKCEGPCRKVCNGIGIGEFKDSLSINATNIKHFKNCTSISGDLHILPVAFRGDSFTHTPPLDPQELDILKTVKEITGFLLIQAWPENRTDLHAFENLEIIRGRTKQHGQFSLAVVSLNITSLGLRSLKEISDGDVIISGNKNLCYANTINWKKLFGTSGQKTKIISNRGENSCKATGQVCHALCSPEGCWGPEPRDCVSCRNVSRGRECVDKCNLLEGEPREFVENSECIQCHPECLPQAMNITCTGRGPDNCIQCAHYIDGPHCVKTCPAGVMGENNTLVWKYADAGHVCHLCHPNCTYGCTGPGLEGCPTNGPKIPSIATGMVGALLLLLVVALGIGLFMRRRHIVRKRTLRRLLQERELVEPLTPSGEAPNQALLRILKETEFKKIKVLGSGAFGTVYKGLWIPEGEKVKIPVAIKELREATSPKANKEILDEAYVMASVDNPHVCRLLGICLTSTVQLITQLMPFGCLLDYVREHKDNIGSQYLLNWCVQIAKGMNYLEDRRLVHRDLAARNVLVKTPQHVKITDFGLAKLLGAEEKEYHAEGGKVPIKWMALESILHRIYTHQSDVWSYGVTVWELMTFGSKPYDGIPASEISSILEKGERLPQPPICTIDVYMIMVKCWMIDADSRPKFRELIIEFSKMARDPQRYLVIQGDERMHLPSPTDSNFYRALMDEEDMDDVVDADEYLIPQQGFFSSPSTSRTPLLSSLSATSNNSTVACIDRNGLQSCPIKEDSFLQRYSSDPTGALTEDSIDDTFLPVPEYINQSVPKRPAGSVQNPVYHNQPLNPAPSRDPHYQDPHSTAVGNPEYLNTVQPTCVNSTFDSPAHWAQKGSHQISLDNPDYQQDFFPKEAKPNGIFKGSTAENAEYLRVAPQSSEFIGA
# Assay summary: Inhibition of EGFR at 10 uM
Calls of active or inactive are those of the source. No cut-off for these calls is given here.
Assay metric: Activity

Example compounds with recorded Activity:
O=C(Nc1cnccn1)c1ccccc1NCc1ccncc1 inactive
N=C(Nc1ccccc1Cl)c1ccccc1OCc1ccncc1 inactive
COc1cc(NCc2ccncc2)c(C(=N)Nc2ccc(Cl)cc2)cc1OC inactive
COc1cc(NCc2ccncc2)c(C(=N)Nc2ccccc2C(F)(F)F)cc1OC inactive
N=C(Nc1ccc(Cl)cc1)c1ccccc1NCc1ccncc1 inactive
COc1cc(NCc2ccncc2)c(C(=O)Nc2ncccn2)cc1OC inactive
COc1cc(OCc2ccncc2)c(C(=N)Nc2ccccc2Cl)cc1OC inactive
COc1cc(OCc2ccncc2)c(C(=N)Nc2ccc(Cl)cc2)cc1OC inactive

Problem: // Activity lookup, key: `N=C(Nc1ccc(Cl)cc1)c1ccccc1OCc1ccncc1`
Solution: inactive

Problem: Activity lookup needed for `COc1cc(OCc2ccncc2)c(C(=O)Nc2ccccn2)cc1OC` , thanks.
Solution: inactive

Problem: If you can, please state the reported Activity value of `O=C(Nc1ccccc1Cl)c1ccccc1OCc1ccncc1` .
Solution: inactive
